Molecular target: bromodomain factor 5 (LdBDF5), first bromodomain BD5.1 (Leishmania donovani, UniProt A0ACM8QMJ0)
Construct: BD5.1 (first bromodomain of the N-terminal tandem repeat)
Assay: ITC (also MST Kd […], FP competition IC50 […], TSA, waterLOGSY/STD/CPMG NMR)
Quantity name: pKd
Answers are plain numbers, as −log10 of the molar value.

Record `COc1ccc(CCc2nc3cc(-c4c(C)noc4C)ccc3n2C[C@H](C)N2CCOCC2)cc1Cl` , field pKd: 6.55
